biological target: Cyclin-dependent kinase 5/CDK5 activator 1 (Homo sapiens, UniProt Q00535); experiment: Inhibition of recombinant human CDK5/p25 after 30 mins by scintillation counting
Sequence (Q00535 whole entry): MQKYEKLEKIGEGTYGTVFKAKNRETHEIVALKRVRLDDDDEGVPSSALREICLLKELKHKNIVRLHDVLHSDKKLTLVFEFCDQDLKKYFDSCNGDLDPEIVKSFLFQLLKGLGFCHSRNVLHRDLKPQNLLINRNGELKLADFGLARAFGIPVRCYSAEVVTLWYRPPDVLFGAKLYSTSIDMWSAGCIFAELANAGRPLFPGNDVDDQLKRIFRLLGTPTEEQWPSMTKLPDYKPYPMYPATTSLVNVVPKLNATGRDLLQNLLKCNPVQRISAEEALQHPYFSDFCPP
Sequence (Q15078 whole entry, further chain): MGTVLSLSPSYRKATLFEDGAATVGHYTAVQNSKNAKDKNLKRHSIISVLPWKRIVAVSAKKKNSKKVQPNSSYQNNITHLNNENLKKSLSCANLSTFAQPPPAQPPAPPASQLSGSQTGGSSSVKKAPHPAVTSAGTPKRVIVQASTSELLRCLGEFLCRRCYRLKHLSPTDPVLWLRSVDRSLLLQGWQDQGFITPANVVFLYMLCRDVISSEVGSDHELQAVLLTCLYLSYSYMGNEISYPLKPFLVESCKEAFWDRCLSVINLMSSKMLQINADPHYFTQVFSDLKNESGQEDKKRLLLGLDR
Answer each item with its documented IC50.
Numbers only, in µM.

Hello, I would appreciate it if you could give IC50 for each entry below.
1. CC(C)[C@@H](CO)Nc1nc(Nc2ncccn2)c2ncn(C(C)C)c2n1
2. CC[C@H](CO)Nc1nc(Nc2ccnnc2)c2ncn(C(C)C)c2n1
3. CC(C)[C@@H](CO)Nc1nc(Nc2ccncn2)c2ncn(C(C)C)c2n1

a:
1: 10; 2: 0.06; 3: 3.2

q: So what does the record say about IC50 for "CC(C)n1cnc2c(Nc3ccnnc3)nc(Cl)nc21" ?
a: 3
